Provide the recorded Bmax (MFI) for the entries that follow.
Target: cynomolgus BCMA on 293T-cynoBCMA cells (cynomolgus, UniProt Q02223 1-184 (human entry))
Sequence (Q02223 other isoform, or with tags, fused parts or gaps): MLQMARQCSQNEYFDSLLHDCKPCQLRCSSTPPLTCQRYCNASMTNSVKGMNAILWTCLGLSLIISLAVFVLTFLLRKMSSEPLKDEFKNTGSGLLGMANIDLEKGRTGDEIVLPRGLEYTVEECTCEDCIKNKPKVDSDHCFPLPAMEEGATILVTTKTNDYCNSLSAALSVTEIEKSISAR
Experiment: FACS, 293T-cynoBCMA cells
One number for each entry, in MFI.

9E12 (antibody, V domains shown, chicken HybriFree-derived antibody; also called Antibody 43) VH: AVTLDESGGGLQTPGGGLSLVCKASGFTFSDYGLGWMRQAPGKGLEYVARINSAGSGTYYGSAVDGRATISRDNGQSTVRLQLNNLRAEDTGTYYCTRGGGGASIDGWGHGTEVIVSS VL: ALTQPSSVSANPGETVKITCSGGGSYYGSYYYGWYQQKSPGSAPVTLIYNNNNRPSDIPSRFSGSTSGSTGTLTITGVRAEDEAVYYCGSFDSSTDAIFGAGTTLTVL :: 13200
10G5 (antibody, V domains shown, chicken HybriFree-derived antibody; also called Antibody 31) VH: AVTLDESGGGLQTPGGVLSLVCKASGFTFSSFNMFWVRQAPGKGLEWVAYISNDGSSTSYGPAVKGRATISRDNGQSTVRLQLNNLRAEDTATYFCAKTTCIGSGGCIDTWGHGTEVIVSS VL: ALTQPSSVSANPGETVKITCSGGNYDYGWYQQKSPGSAPVTLIYYNNKRPSDIPSRFSGSKSGSTGTLTITGVQAEDEAIYYCANVDSTDDVFGAGTTLTVL :: 24400

With those in mind, consider the next binder.
Recorded result, 9A8 (antibody, V domains shown, chicken HybriFree-derived antibody; also called Antibody 30) VH: AVTLDESGGGLQTPGGTLSLVCKASGFTFSSFNMFWVRQAPGKGLEWVAYIRNDGNSASYGPAVKGRATISRDNGQSTVRLQLNNLRAEDTATYYCAKTTCIGSGGCIDTWGHGTEVIVSS VL: ALTQPSSVSANPGETVKITCSGGSSDYGWFQQKSPGSAPVTVIYSNNQRPSGIPSRFSGSKSGSTGTLTITGVQAEDEAIYYCANVDYTDDVFGAGTTLTVL , Bmax (MFI): 17800
